Where a name gives a salt, the structure may show the parent alone.
# collection of IC50 values tested on GST tagged IRAK4 (Homo sapiens (Human), UniProt Q9NWZ3)
# Sequence (Q9NWZ3 whole entry): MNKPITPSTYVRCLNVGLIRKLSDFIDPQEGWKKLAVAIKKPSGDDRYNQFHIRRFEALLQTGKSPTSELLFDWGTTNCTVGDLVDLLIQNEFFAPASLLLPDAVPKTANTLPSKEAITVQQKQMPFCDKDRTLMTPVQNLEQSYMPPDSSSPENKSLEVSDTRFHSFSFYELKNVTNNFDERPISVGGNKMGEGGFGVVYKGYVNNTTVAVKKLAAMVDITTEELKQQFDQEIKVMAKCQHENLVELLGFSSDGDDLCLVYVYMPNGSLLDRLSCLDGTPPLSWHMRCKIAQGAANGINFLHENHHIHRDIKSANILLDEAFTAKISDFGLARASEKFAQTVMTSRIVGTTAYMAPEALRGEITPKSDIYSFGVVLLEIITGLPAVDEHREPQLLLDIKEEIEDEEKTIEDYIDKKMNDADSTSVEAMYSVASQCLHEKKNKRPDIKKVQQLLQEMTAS
Hi! Could you send only the number? It should be in µM, unit omitted.

1) Cn1cc(NC(=O)c2csc3ncc(N[C@@H]4CCCC(F)(F)[C@@H]4N)nc23)c(Cl)n1 [Example 43, trifluoroacetate]
0.064

(Q) Fetch value of IC50 on GST tagged IRAK4 (Homo sapiens (Human), UniProt Q9NWZ3) for Cn1cc(NC(=O)c2csc3ncc(N4CCCNCC4)nc23)c(Br)n1 [Example 21, trifluoroacetate] .
(A) 0.015

(Q) Fetch value of IC50 on GST tagged IRAK4 (Homo sapiens (Human), UniProt Q9NWZ3) for O=C(Nc1cscc1Cl)c1csc2ncc(N3CCCNCC3)nc12 [Example 107, trifluoroacetate] .
(A) 0.151

(Q) Fetch value of IC50 on GST tagged IRAK4 (Homo sapiens (Human), UniProt Q9NWZ3) for N#Cc1ccccc1NC(=O)c1csc2ncc(N[C@@H]3CCCCNC3)nc12 (single isomer, unassigned) [Example 94, trifluoroacetate] .
(A) 0.009

(Q) Fetch value of IC50 on GST tagged IRAK4 (Homo sapiens (Human), UniProt Q9NWZ3) for N[C@H]1CCCC[C@H]1Nc1cnc2scc(C(=O)Nc3ccccc3C(F)(F)F)c2n1 [Example 81, trifluoroacetate] .
(A) 0.086

(Q) Fetch value of IC50 on GST tagged IRAK4 (Homo sapiens (Human), UniProt Q9NWZ3) for N#Cc1ccccc1NC(=O)c1csc2ncc(N[C@@H]3CCCC(F)(F)[C@@H]3N)nc12 [Example 105, trifluoroacetate] .
(A) 0.146
